Test: Oral bioavailability in rat at 10 mg/kg
Type: ADME, organism-based
Settings: in vivo
PROPERTY_MEASURED: bioavailability (%)
Numbers only; they are read as %.

Q: Bench note: what bioavailability did "COc1cc2nccc(Oc3ccc(NC(=O)c4cn(-c5ccccc5)c5ccccc5c4=O)cc3)c2cc1OC" show?
A: 36.3

----------
Tested on: THP-1
Assay: Antiinflammatory activity in LPS-induced human THP-1 cells assessed as inhibition of LPS-induced IL-6 release preincubated for 30 mins followed by LPS stimulation for 24 hrs by ELISA method
Type: functional, cell-based
PROPERTY_MEASURED: IC50 (nM)
Numbers only; they are read as nM.

Q: Bench note: what IC50 did "COc1cc2nccc(Oc3ccc(NC(=O)c4cn(-c5ccccc5)c5ccccc5c4=O)cc3)c2cc1OC" show?
A: 1330

----------
Experiment: AUC (0 to t) in rat at 10 mg/kg, po
Assay type: ADME, organism-based
Design: dose 10 mg/kg, route po
Details: in vivo
PROPERTY_MEASURED: AUC(0-t)
Reply with the number, then its unit.

Q: Bench note: what AUC(0-t) did "COc1cc2nccc(Oc3ccc(NC(=O)c4cn(-c5ccccc5)c5ccccc5c4=O)cc3)c2cc1OC" show?
A: 22900 ng·h/mL

----------
Test system: J774.A1
Experiment: Antiinflammatory activity in LPS-induced mouse J774.A1 cells assessed as inhibition of LPS-induced IL-6 release at 10 uM preincubated for 30 mins followed by LPS stimulation for 24 hrs by ELISA method
Assay type: functional
Conditions: time 24.5 hrs
Group membership follows inhibition at 10 µM per the scheme low interval (below 30%), middle interval (30% to below 50%), high interval (50% or more)

Check out these entries, answers already filled in.
SMILES_RECORD: COc1cc2ncnc(Oc3ccc(NC(=O)c4cn(-c5ccccc5)c5ccccc5c4=O)cc3)c2cc1OC
ANSWER_LABEL: middle interval

SMILES_RECORD: COc1cc2nccc(Oc3cccc(NC(=O)c4cn(-c5ccc(Cl)cc5)c5ccccc5c4=O)c3)c2cc1OC
ANSWER_LABEL: high interval

SMILES_RECORD: COc1cc2ncnc(Oc3ccc(NC(=O)c4cn(-c5ccc(OC(F)(F)F)cc5)c5ccccc5c4=O)cc3)c2cc1OC
ANSWER_LABEL: middle interval

SMILES_RECORD: COc1cc2nccc(Oc3ccc(NC(=O)c4cn(-c5ccc(Cl)cc5)c5ccccc5c4=O)cc3)c2cc1OC
ANSWER_LABEL: middle interval

SMILES_RECORD: COc1cc2nccc(Oc3ccc(NC(=O)c4cn(-c5ccc(Br)cc5F)c5ccccc5c4=O)cc3)c2cc1OC
ANSWER_LABEL: low interval

SMILES_RECORD: COc1cc2nccc(Oc3ccc(NC(=O)c4cn(-c5ccc(F)cc5)c5ccccc5c4=O)cc3)c2cc1OC
ANSWER_LABEL: high interval

SMILES_RECORD: COc1cc2ncnc(Oc3cccc(NC(=O)c4cn(-c5ccc(OC(F)(F)F)cc5)c5ccccc5c4=O)c3)c2cc1OC
ANSWER_LABEL: low interval

SMILES_RECORD: COc1cc2ncnc(Oc3cccc(NC(=O)c4cn(-c5ccccc5)c5ccccc5c4=O)c3)c2cc1OC
ANSWER_LABEL: middle interval

SMILES_RECORD: COc1cc2ncnc(Oc3ccc(NC(=O)c4cn(-c5ccc(F)c(Cl)c5)c5ccccc5c4=O)cc3)c2cc1OC
ANSWER_LABEL: middle interval

SMILES_RECORD: COc1cc2nccc(Oc3ccc(NC(=O)c4cn(-c5ccc(F)c(Cl)c5)c5ccccc5c4=O)cc3)c2cc1OC
ANSWER_LABEL: high interval

Q: Category of "COc1cc2ncnc(Oc3ccc(NC(=O)c4cn(-c5ccc(Br)cc5F)c5ccccc5c4=O)cc3)c2cc1OC" :
A: low interval

Q: Category of "COc1cc2ncnc(Oc3cccc(NC(=O)c4cn(-c5ccc(F)c(Cl)c5)c5ccccc5c4=O)c3)c2cc1OC" :
A: middle interval

Q: Category of "COc1cc2ncnc(Oc3cccc(NC(=O)c4cn(-c5ccc(Br)cc5)c5ccccc5c4=O)c3)c2cc1OC" :
A: low interval

Q: Category of "COc1cc2nccc(Oc3cccc(NC(=O)c4cn(-c5ccc(Br)cc5F)c5ccccc5c4=O)c3)c2cc1OC" :
A: high interval

Q: Category of "COc1cc2nccc(Oc3ccc(NC(=O)c4cn(-c5ccccc5)c5ccccc5c4=O)cc3)c2cc1OC" :
A: high interval

Q: Category of "COc1cc2nccc(Oc3cccc(NC(=O)c4cn(-c5ccc(Br)cc5)c5ccccc5c4=O)c3)c2cc1OC" :
A: middle interval
